# TARGET UNDER TEST: human MCHR1 (Homo sapiens, UniProt Q99705)
# Construct: expressed in transfected cells; host or cells: CHO cell clone 57 (membrane fraction)
# Sequence (Q99705 whole entry): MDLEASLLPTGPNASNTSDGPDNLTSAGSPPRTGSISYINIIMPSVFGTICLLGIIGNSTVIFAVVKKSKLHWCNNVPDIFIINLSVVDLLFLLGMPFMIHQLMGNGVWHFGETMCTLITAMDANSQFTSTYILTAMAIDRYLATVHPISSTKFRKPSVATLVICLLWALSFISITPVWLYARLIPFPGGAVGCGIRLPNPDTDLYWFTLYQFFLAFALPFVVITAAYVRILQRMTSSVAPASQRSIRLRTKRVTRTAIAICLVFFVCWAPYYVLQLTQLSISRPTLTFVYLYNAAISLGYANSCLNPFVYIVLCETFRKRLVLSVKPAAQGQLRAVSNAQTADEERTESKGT
# ASSAY REMARKS: Human MCH receptor 1 (MCHR1) competitive binding assay, [125I]-MCH(4-19), CHO cell membrane fraction
# CONDITION DESCRIPTION: test compound 0.1 μM, human MCHR1-expressing CHO cell membrane, 25° C., 1 hr, read-out: Binding inhibition rate (0.1 μM)
Please go through the items and note down their inhibition at 0.1 µM.
Answer with a number only, understood to be in %.

// returns reported inhibition at 0.1 µM for input `Cc1c(CNCC(C)(C)C)[nH]c2c(F)c(NC(=O)c3ccc(OC[C@@H]4CCCO4)cc3)ccc12`
100

Next compound up: `Cc1c(NC(=O)c2ccc(OC[C@@H]3CCCO3)cc2)ccc2c1cc(CNCC1CCOCC1)n2C`
98

Let us now turn to Cn1c(CNCC(C)(C)C)cc2cc(NC(=O)c3ccc(OC[C@@H]4CCCO4)cc3)ccc21 [Example 15, acetate]
96

Can you check `Cc1c(NC(=O)c2ccc(OC[C@@H]3CCCO3)cc2F)ccc2cc(CN[C@H]3CC[C@](C)(O)CC3)n(C)c12` next?
95

Query `Cc1c(NC(=O)c2ccc(OCC3CC3)cc2)ccc2cc(CNCC(C)(C)O)[nH]c12` next
98
